B1: glmS ribozyme (parent)
chain: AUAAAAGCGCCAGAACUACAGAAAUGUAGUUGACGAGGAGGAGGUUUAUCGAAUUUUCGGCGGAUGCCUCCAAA

Variants of: B1
ASSAY INFO: self-cleavage kobs at 640 uM GlcN6P; higher = faster cleavage; RNA array
RECORDED CONDITIONS: with glucosamine-6-phosphate
Variants at the floor of the assay were thinned out.
Kind request: treat 0.0002 s⁻¹ as inclusive, so self-cleavage kobs at 640 uM GlcN6P at 0.0002 s⁻¹ or higher is class 1, anything lower is class 0.

- SEQUENCE DATA: "AUAAAAGCGCCAGAACUACAGAAAUGUAGUUGACGAGGGGGAGGUUUAUCGAAUUUCCGGCGGAUGCCUCCAAA [A39G U57C]"
  CAT: "class 0"
- SEQUENCE DATA: "AUAAAAGCUCCAGAACUACAGAAAUGUAGUUGACGAGGAUGAGGUGUAUCGAAUUUUCGGCCGAUGCCUCCAAA [G9U G40U U46G G62C]"
  CAT: "class 0"
- SEQUENCE DATA: "AUAAAAGCGCCAGAACUACAGAAAUGUAGUUGACGAGGAGGAGGUUUAUCGAGUUUUCGGCGGAUGACUCCAAA [A53G C67A]"
  CAT: "class 1"

(Q) Reported self-cleavage kobs at 640 uM GlcN6P at or above 0.0002 s⁻¹? AUAAAAGCGCCAGAUCUACAGAAAUGUAGUUGGCGAGGAGGAGGUUGAUCGAAGUUUCGGCGGAUGUCUCAAAA [A15U A33G U47G U54G C67U C71A]
(A) class 1

(Q) Quick check: does AUAAAAGCGCCAGAACUACAGAAAUGUAGCAGACGAGGAGGAGGAUUAUCGAAUUUUCGGCGGAUGCCUCCAAA [U30C U31A U45A] have self-cleavage kobs at 640 uM GlcN6P greater than or equal to 0.0002 s⁻¹?
(A) class 1

(Q) State whether the measured self-cleavage kobs at 640 uM GlcN6P reaches 0.0002 s⁻¹, counting equality as reaching it, for AUAAAAGCGCCAGAACUACAGAAAUGUAGUUGAAGAGGAGGAGGUUUAUCGAAUUUUCUGCGGAUGCCUCCAAA [C34A G59U]
(A) class 0

(Q) Has AUAAAAGCGCCAGAACUACAGAAAUGUAGUUGACGAGGAGGAGGUUUAUCGAAUUAUCGGCGGAUGCCUCGAAA [U56A C71G] a recorded self-cleavage kobs at 640 uM GlcN6P greater than or equal to 0.0002 s⁻¹?
(A) class 1

(Q) In plain terms: is recorded self-cleavage kobs at 640 uM GlcN6P at least 0.0002 s⁻¹ for AUAAACGCGCCAGAACUACAGAAAUGUAGUUGACGAGGAGGAGGUUUAUCGAAUUUUCGUCGGAUGCCUCCAAA [A6C G60U] ?
(A) class 0

(Q) Does AUAAAAGCGCCAGAACUACAGAAAUGUAGUUGACGAGGUGGAGGUUUAUCGACUUUUCGGCGGAUGCCUCAAAA [A39U A53C C71A] have a reported self-cleavage kobs at 640 uM GlcN6P of at least 0.0002 s⁻¹?
(A) class 0
